- System: C1R cells
- Assay Summary: C1R tumor cell growth inhibition (CellTiterGlo)
- Format: cell-based
- Assay Setup: 96 h, B cell lymphoma, 4 days culture
Readout Kind: IC50 (µM)
Give bare numbers, in µM.

Task: For the compound O=P(O)(O)C(CNc1nccs1)P(=O)(O)O [Compound 14, reference compound] , what IC50 is on record?
Output: 79

====

- Tested on: G-361 cells / γδ T cells
- Assay Summary: TNF-α production from γδ T cells stimulated by compound-pretreated G-361 cells
- Format: cell-based
- Assay Setup: Homo sapiens; G-361, Melanoma; 4 hr pretreatment, 16 hr with γδ T cells; read-out: TNF-α50
Readout Kind: pEC50
Numbers only, as −log10 of the molar value.

Task: For the compound O=P(O)(O)C(CNc1nccs1)P(=O)(O)O [Compound 14, reference compound] , what pEC50 is on record?
Output: 5.29

Entry source: patent US10532065B2
